target: Cytochrome P450 2C9 (Homo sapiens); assay: Cytochrome P450 Family 2 Subfamily C Member 9 (CYP2C9) small molecule antagonists: luciferase reporter qHTS assay (AID 1671198); settings: P450-Glo CYP2C9 enzyme assay, luciferin luminescence; series mostly up to 115 µM; further: nearly all actives have a fitted effect of over 50% in size
Records with an inconclusive call do not appear. Activity calls are given as the source filed them. The call rests on the fitted dose curve; in most records, active means well fitted inhibition curve with a large enough effect in the repeat runs; inconclusive means weak or mixed curves; inactive means no such curve, though single readings can be large or run the other way.
Output constraint: value belongs to y = active, n = inactive

>>> print(df.to_string())
                       compound  assigned_label
0  CCC[CH2][Sn]([Cl])([Cl])[Cl]               n

Called result for `CN(C)CCO`
n

What about `BrCCBr` ?
n

What about `Cc1[nH]c(=O)n(C(C)(C)C)c(=O)c1Cl` ?
n

What about `C#CCN(C)[C@H](C)Cc1ccccc1` ?
n

What about `COc1ccc2c3c1O[C@H]1[C@@H](O)C=C[C@H]4[C@@H](C2)N(C)CC[C@@]341` ?
n

These entries and their values trace back to PubChem BioAssay (Tox21).
